relative viability by entry:
Test system: ABC-1
methodNotes: relative viability (nuclei count vs DMSO), 5 days (fraction); higher = more cells survive
testConditions: first compound 15.81 µM
readout: relative viability

compound	subjectOfTest	number
O=C(O)CCCCC(CCSCc1ccccc1)SCc1ccccc1 (centres undefined) [CPI-613] + NC(=O)Nc1cc(-c2cccc(F)c2)sc1C(=O)N[C@H]1CCCNC1 [AZD7762] (partner 0.2 µM)	ABC-1	0.696
O=C(O)CCCCC(CCSCc1ccccc1)SCc1ccccc1 (centres undefined) [CPI-613] + C[C@]1(O)C[C@@H](c2nc(-c3ccc4ccc(-c5ccccc5)nc4c3)c3c(N)nccn32)C1 [Linsitinib] (partner 1 µM)	ABC-1	1.02
O=C(O)CCCCC(CCSCc1ccccc1)SCc1ccccc1 (centres undefined) [CPI-613] + Cc1nc(NC(=O)N2CCC[C@H]2C(N)=O)sc1-c1ccnc(C(C)(C)C(F)(F)F)c1 [Alpelisib] (partner 2 µM)	ABC-1	1.2
O=C(O)CCCCC(CCSCc1ccccc1)SCc1ccccc1 (centres undefined) [CPI-613] + O=C(c1cc(Cc2n[nH]c(=O)c3ccccc23)ccc1F)N1CCN(C(=O)C2CC2)CC1 [Olaparib] (partner 8 µM)	ABC-1	0.845
